Hi there, I'd appreciate the recorded RP-LC retention time for every entry that follows.
TEST DETAILS: gradient 5% acetonitrile 3 min, to 50% in 2 min, to 85% in 15 min, held 3 min, 100 µL/min
ASSAY SETUP: column: Zorbax Extend-C18 2.1 x 50 mm; eluents: water / acetonitrile, 0.1% formic acid
// units = s; emit number, no label

Ask | State the recorded RP-LC retention time for this entry: `CCc1nnc(-c2cc(C)n(CC(=O)Nc3cc(OC)cc(OC)c3)c2C)o1`
Reply | 807

Ask | Entry under review: N=C(CC(O)COc1ccccc1-c1ccccc1)N1CCCCC1 (centres undefined) . Reported RP-LC retention time?
Reply | 793

Ask | Suppose we examine the molecule COC(=O)C(Cc1ccccc1)NC(=O)Nc1cccn2c(C)nnc12 (centres undefined) ; what RP-LC retention time value has been reported?
Reply | 685

Ask | Please look up its RP-LC retention time: `CN1CCN(C(=O)c2cc(-c3cccs3)n(CC(=O)NCc3ccco3)n2)CC1`
Reply | 572

Ask | Dear colleague, I am looking for the recorded RP-LC retention time of the following molecule: `CCCCN(CC)C(=O)Cn1c(=O)c2cnc(-c3ccccc3)nc2n(C)c1=O`
Reply | 1070

Ask | Given the entry `Cn1c(=O)c2ccn(CC(=O)Nc3cccc(C(F)(F)F)c3)c2n(C)c1=O` , report its measured RP-LC retention time.
Reply | 705

Ask | Consider the molecule `Cc1ccn2c(Nc3ccc4c(c3)OCO4)c(-c3cc(Br)ccc3F)nc2c1` and give its measured RP-LC retention time.
Reply | 747

Ask | Which RP-LC retention time value belongs to `Cc1ccc(NC(=O)N2CCC(c3nc(C(=O)N(C)C)c(C)o3)CC2)cc1Cl` ?
Reply | 799

Ask | Please give the measured RP-LC retention time for this molecule: `O=C(CS(=O)(=O)Cc1ccccc1)Nc1nc2cc3c(cc2s1)OCO3`
Reply | 790

----------
TEST DETAILS: gradient 5% acetonitrile 3 min, to 50% in 2 min, to 85% in 15 min, held 3 min, 100 µL/min
ASSAY SETUP: column: Zorbax Extend-C18 2.1 x 50 mm; eluents: water / acetonitrile, 0.1% formic acid
With a cut-off of 900 s, any RP-LC retention time strictly below it is called 1; any RP-LC retention time meeting it or above is called 0.

Ask | Take the molecule `Cn1nc(-c2nnc(-c3ccccc3F)o2)c2c1CCN(S(=O)(=O)c1ccc3c(c1)CCC3)C2` and say whether its RP-LC retention time is less than 900 s.
Reply | 0

Ask | Please indicate whether the reported RP-LC retention time of `c1ccc(-c2nnc3nc(N4CCCCC4)nc(N4CCCCC4)n23)cc1` is strictly below 900 s.
Reply | 0

Ask | Does the reported RP-LC retention time of COc1cc(OC)c(NC(=O)C2CCN(C(=O)C3Sc4ccccc4NC3=O)CC2)cc1Cl (stereo not given) stay below 900 s?
Reply | 1

Ask | Identify whether the molecule `Cc1cccc(OCc2nc(-c3cccc(-c4csc(C)n4)c3)no2)c1` records RP-LC retention time below 900 s.
Reply | 0

Ask | Threshold test, RP-LC retention time < 900 s: `Cn1nccc1C(=O)NCc1ccc(-c2nc(-c3ccccc3)no2)s1`
Reply | 0

----------
TEST DETAILS: gradient 5% acetonitrile 3 min, to 50% in 2 min, to 85% in 15 min, held 3 min, 100 µL/min
ASSAY SETUP: column: Zorbax Extend-C18 2.1 x 50 mm; eluents: water / acetonitrile, 0.1% formic acid
REPORTED ENDPOINT: RP-LC retention time (s)
Report the value in s with no unit label.

Ask | Entry under review: CCCN1C(=O)C(CC(=O)N2CCCC2)Sc2ncccc21 (stereo not given) . Reported RP-LC retention time?
Reply | 691

Ask | Given the entry `CCn1nccc1-c1csc(S(=O)(=O)N2CCCC2)c1` , report its measured RP-LC retention time.
Reply | 864

Ask | Reported RP-LC retention time for N#Cc1cccc(CN2CCCC(c3nc(-c4ccncc4)n[nH]3)C2)c1 (stereo not given) : what is it?
Reply | 494

Ask | Suppose we examine the compound `CC(C)C(=O)Nc1cccn2nc(C3CCC3)nc12` ; what RP-LC retention time value has been reported?
Reply | 802

Ask | RP-LC retention time lookup needed for COC(=O)C1=C(C)N(C(C)C)C(=O)C1(NC(=O)c1cccc(OC)c1)C(F)(F)F (stereo not given) , thanks.
Reply | 917

----------
TEST DETAILS: gradient 5% acetonitrile 3 min, to 50% in 2 min, to 85% in 15 min, held 3 min, 100 µL/min
ASSAY SETUP: column: Zorbax Extend-C18 2.1 x 50 mm; eluents: water / acetonitrile, 0.1% formic acid
Assign RP-LC retention time to each entry below.
Respond numerically; units are s and should not be typed.

Ask | # RP-LC retention time lookup, item `Cc1cc(C)cc(C(=O)N2CC3CN(S(=O)(=O)c4ccccc4)CC(C2)O3)c1`
Reply | 892

Ask | Sample `O=C(Cc1ccccc1Cl)N1CCc2nc(-c3ccc(Cl)cc3)ncc2C1` — what was its RP-LC retention time?
Reply | 1140

Ask | Looking for the measured RP-LC retention time of O=C(NC1CCCCC1N1C(=O)CSC1=O)c1ccco1 (stereo not given) , can you help?
Reply | 668

Ask | If you can, please state the reported RP-LC retention time value of `C=CCn1c(C)c(CC(=O)NCC(C)C)c(=O)n2nc(-c3ccc(C)cc3)nc12` .
Reply | 840

Ask | Recorded RP-LC retention time of O=C(CCc1ccccc1)NC1CCN(c2cc(-c3ccccc3)[nH]n2)C1 (stereo not given) , please.
Reply | 643

Ask | Fill in: RP-LC retention time of `COc1ccc(CCNc2nc(-c3ccc(Cl)cc3)cs2)cc1OC` is ___
Reply | 1050

Ask | Return reported RP-LC retention time; argument: `CCn1ccc2c(cc(C(=O)Nc3ccc(OC)cc3)n2C)c1=O`
Reply | 706

Ask | For the molecule shown here, CCNC(=O)N1CCc2c([nH]c3ccc(OC)cc23)C12C(=O)N(C)c1ccccc12 (stereo not given) , give the reported RP-LC retention time.
Reply | 984

Ask | Item `O=C1c2cccc3c2[C@@H](CCC3)CN1[C@@H]1CN2CCC1CC2` has what recorded RP-LC retention time?
Reply | 664

Ask | Fill in: RP-LC retention time of Cc1ccc(Cn2c(=O)c(N3CCCC(C(=O)NCCc4c(C)noc4C)C3)nc3ccccc32)cc1 (stereo not given) is ___
Reply | 1080

----------
TEST DETAILS: gradient 5% acetonitrile 3 min, to 50% in 2 min, to 85% in 15 min, held 3 min, 100 µL/min
ASSAY SETUP: column: Zorbax Extend-C18 2.1 x 50 mm; eluents: water / acetonitrile, 0.1% formic acid
Class field: derived from RP-LC retention time; ranges low bracket = under 700 s, middle bracket = from 700 s up to 900 s, high bracket = 900 s and over

Ask | Classify this compound: `O=C(NCCN1CCOCC1)c1ccc(Nc2c(-c3ccccc3)nc3cnccn23)cc1`
Reply | low bracket

Ask | For this compound, which bin applies? COc1ccccc1NC(=O)C1CCCN(c2ncnc3c2nc2n3CCCCC2)C1 (centres undefined)
Reply | middle bracket

Ask | # classify by RP-LC retention time band: `CC(C)n1c(CCNC(=O)c2c(F)cccc2F)nc2cccnc21`
Reply | low bracket

Ask | Bin? COCC(=O)NC1CCC12CCN(C(=O)NC(C)C)CC2 (centres undefined)
Reply | low bracket

Ask | In plain terms, what class is Cc1ccc(CNC(=O)C2CCCN(S(=O)(=O)c3c[nH]c(C(=O)N4CCCC4)c3)C2)cc1 (centres undefined) ?
Reply | middle bracket

Ask | Bin? `CCc1nc2cc(-c3noc(Cc4ccsc4)n3)ccc2o1`
Reply | high bracket

Ask | Exercise: read the entry `Cc1ccc(NC(=O)C2CCN(S(=O)(=O)c3cn(C(C)C)cn3)CC2)nc1` and state which class it falls under.
Reply | low bracket

Ask | Exam item: assign `CCOc1ccc(-c2ccc(=O)n(CCCC(=O)Nc3ccccc3SC)n2)cc1` to the correct category.
Reply | middle bracket

Ask | Which class holds `Cn1ncc2c3ccccc3n(CC(=O)N3CCN(C4CCCCC4)CC3)c2c1=O` ?
Reply | low bracket

Ask | Class for `CCCNC(=O)CCc1nc2ccccc2n(CC(=O)Nc2ccc(OCC)cc2)c1=O` ?
Reply | middle bracket

Ask | Where would `CCc1ccc(-c2cc3c(=O)n(Cc4noc(CN5CCN(C)CC5)n4)ccn3n2)cc1` land among the classes by reported RP-LC retention time?
Reply | low bracket

Ask | Kindly state the category for this compound: O=C(NCCc1cccs1)C1CCCN(c2ncnc3c2oc2ccccc23)C1 (centres undefined)
Reply | middle bracket

Ask | Kindly state the category for this compound: `COc1ccccc1-c1cc2c(=O)n(Cc3nc(-c4cccc(F)c4)no3)ccn2n1`
Reply | high bracket

Ask | Input `Cc1ccc2c(c1)cc(S(=O)(=O)c1ccccc1)c(=O)n2CC(=O)NCCC(C)C` ; output its category
Reply | high bracket

Ask | Which RP-LC retention time band matches `Cn1c(=O)c2cc(C(=O)N3CCN(c4ccc(Cl)cc4)CC3)sc2n(C)c1=O` ?
Reply | middle bracket

Ask | Hi there! Could you help me figure out the category for `CCc1cc(=O)n(CC(=O)Nc2ccccc2)c(-c2ccccc2)n1` please?
Reply | high bracket
